The reported measurements were obtained from PubChem BioAssay (NCI).

Tested on: SK-MEL-2 melanoma
Experiment: NCI-60 one-dose screen, 48 h (100 = growth as untreated, 0 = no growth, -100 = all killed)
Conditions: 10 µM unless noted
Procedure: Growth inhibition of the SK-MEL-2 human tumor cell line is measured as a screen for anti-cancer activity. Cells are grown in 96 well plates and exposed to the test compound for 48 hours. Compounds are tested at a single concentration, which is 10^-5 M for most compounds. The reported endpoint is percent growth (GI% or GIPRCNT), where numbers from 0 - 100% represent growth inhibition, and numbers from -100% - 0 represent cell death. For example, a value of 40 represents 60% growth inhibition. […]
This is part of a sample that, as a whole, favours compounds with a hit. Of some 83,000 tested, about 20% had one in any assay.
Please provide measured growth for the entries that follow.
One number for each entry, in %.

* COc1ccc2sc(N(Cc3cccnc3)C(=O)c3ccc(C#N)cc3)nc2c1 | 109
* Nc1cccc(Nc2cc(S(=O)(=O)O)c(N)c3c2C(=O)c2ccccc2C3=O)c1 | 100

# return growth for each item in the list
1. CC1=NCC2NC(=O)NC(C)=C12 (centres undefined)
2. COc1ccc(/C=C2\CCC/C(=C\c3ccc(OC)c(OC)c3)C2=O)cc1OC
3. O=C(c1ccccc1)N(C(=S)NCCc1ccc(Cl)cc1)c1ccccc1
4. CCn1c(Cc2ccccc2Nc2c(Cl)cccc2Cl)nnc1SCC(=O)NN1C(=O)/C(=C/c2cccc(OC)c2OC)SC1=S
5. N#CC(C#N)=Cc1c(-c2ccccc2)[nH]c2ccccc12
6. O=C(c1nc2ccccc2[nH]1)C1C(c2cccc([N+](=O)[O-])c2)C2CC3CCCCC3N2[C@@]12C(=O)Nc1cc(Cl)ccc12 (some centres undefined)
7. COc1ccc(C2C3=C(COC3=O)N(CCO)c3cc4c(cc32)OCCO4)cc1 (centres undefined)

(A)
1: 101; 2: 86.4; 3: 99.9; 4: 96.7; 5: 45.7; 6: 41.4; 7: 95

# return growth for each item in the list
1. C=C1C(=O)O[C@H]2[C@H]1CC/C(COC(=O)/C=C\C(=O)O)=C\CC[C@@]1(C)O[C@@H]21
2. CCN(CC)CCCNc1ccnc2cc3ccccc3cc12

(A)
1: 112; 2: 57

# return growth for each item in the list
1. Nc1nc2c(ncn2[C@@H]2O[C@H](CS)[C@@H](O)[C@H]2O)c(=O)[nH]1
2. O=C(CCN1C(=O)c2ccccc2C1=O)Nc1ccc(Cl)cc1
3. COC(=O)c1cc2c(n1Cc1ccccc1)-c1oncc1CCC2

(A)
1: 120; 2: 98.7; 3: 47.7
